// provenance: PubChem BioAssay AID2060884

test system: NCI-H929 complex spheroids, viability % test/control; test: Anticancer human tumor NCI-H929 cell line growth inhibition [RAS]; conditions: second compound 0.03 µM; first compound 0.1 µM; stronger effect = lower value;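 further: compound exposure lasted seven days before viability was read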;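 on viability, T/C: 100% = DMSO vehicle control viability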
Listed next: entries and their corresponding viability, T/C.
measurement label: viability, T/C (%)

CCN1CCN(Cc2ccc(Nc3ncc(F)c(-c4cc(F)c5nc(C)n(C(C)C)c5c4)n3)nc2)CC1 + CCn1c(-c2cccnc2C(C)OC)c2c3cc(ccc31)N1CCOC(CC(NC(=O)C(C(C)C)N(C)C(=O)C3(F)CCN(C(=O)C#CC(C)(C)N(C)C)CC3)C(=O)N3CCCC(N3)C(=O)OCC(C)(C)C2)C1 = 101
NC1c2ccccc2OC12CCN(c1cnc3c(N4CCCc5ncccc54)n[nH]c3n1)CC2 (configuration not stated) + CCn1c(-c2cccnc2C(C)OC)c2c3cc(ccc31)N1CCOC(CC(NC(=O)C(C(C)C)N(C)C(=O)C3(F)CCN(C(=O)C#CC(C)(C)N(C)C)CC3)C(=O)N3CCCC(N3)C(=O)OCC(C)(C)C2)C1 = 96.9

---

// values below are reported pIC50
test system: NCI-H929 complex spheroids, viability % test/control; assay: Anticancer human tumor NCI-H929 cell line growth inhibition [RAS]; conditions: curve of first compound; second compound 0.1 µM;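 further: compound exposure lasted seven days before viability was read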
pIC50: −log10 of the molar value.
measurement label: pIC50

CC(C)n1nc(-c2ccc3oc(N)nc3c2)c2c(N)ncnc21 + C#Cc1c(F)ccc2cc(O)cc(-c3ncc4c(N5CC6CCC(C5)N6)nc(OCC56CCCN5CC(F)C6)nc4c3F)c12 = 7.21
CC1(O)CCCC1n1c(=O)c(C(F)F)cc2cnc(NC3CCN(S(C)(=O)=O)CC3)nc21 (configuration not stated) + C#Cc1c(F)ccc2cc(O)cc(-c3ncc4c(N5CC6CCC(C5)N6)nc(OCC56CCCN5CC(F)C6)nc4c3F)c12 = 6.72
CCC(CC)c1cc(NC2CCC(N)C2)n2nccc2n1 (configuration not stated) + C=CC(=O)N1CCN(c2nc(OCC3CCCN3C)nc3c(F)c(-c4nc(N)cc(C)c4C(F)(F)F)c(Cl)cc23)C(C)C1 = 5.75
CC1(C)CCC(Nc2ncc(C(F)(F)F)c(-c3c[nH]c4c(P(C)(C)=O)c(C#N)ccc34)n2)CN1 (configuration not stated) + C#Cc1c(F)ccc2cc(O)cc(-c3ncc4c(N5CC6CCC(C5)N6)nc(OCC56CCCN5CC(F)C6)nc4c3F)c12 = 8.18
Nc1ccn(C2OC(CO)C(O)C2(F)F)c(=O)n1 (configuration not stated) + C=CC(=O)N1CCN(c2nc(OCC3CCCN3C)nc3c(F)c(-c4nc(N)cc(C)c4C(F)(F)F)c(Cl)cc23)C(C)C1 = 7.75

---

Measured viability, T/C, listed per entry for reference.
tested on: NCI-H929 complex spheroids, viability % test/control; assay: Anticancer human tumor NCI-H929 cell line growth inhibition [RAS]; conditions: second compound 0.00949 µM; first compound 0.00316 µM; stronger effect = lower value;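 further: compound exposure lasted seven days before viability was read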;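 on viability, T/C: 100% = DMSO vehicle control viability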
measurement label: viability, T/C (%)

Nc1ccn(C2OC(CO)C(O)C2(F)F)c(=O)n1 (configuration not stated) + CCn1c(-c2cccnc2C(C)OC)c2c3cc(ccc31)N1CCOC(CC(NC(=O)C(C(C)C)N(C)C(=O)C3(F)CCN(C(=O)C#CC(C)(C)N(C)C)CC3)C(=O)N3CCCC(N3)C(=O)OCC(C)(C)C2)C1 = 96.3
C=CC(=O)N1CCN(c2nc(OCC3CCCN3C)nc3c(F)c(-c4nc(N)cc(C)c4C(F)(F)F)c(Cl)cc23)C(C)C1 (configuration not stated) + CCn1c(-c2cc(N3CCN(C)CC3)cnc2C(C)OC)c2c3cc(ccc31)-c1csc(n1)CC(NC(=O)C1CC1C)C(=O)N1CCCC(N1)C(=O)OCC(C)(C)C2 = 109
